Below, each of the compounds is paired with its reported EC50 value.
Biological target: hClpP (Homo sapiens)
Sequence (Q16740 57-277): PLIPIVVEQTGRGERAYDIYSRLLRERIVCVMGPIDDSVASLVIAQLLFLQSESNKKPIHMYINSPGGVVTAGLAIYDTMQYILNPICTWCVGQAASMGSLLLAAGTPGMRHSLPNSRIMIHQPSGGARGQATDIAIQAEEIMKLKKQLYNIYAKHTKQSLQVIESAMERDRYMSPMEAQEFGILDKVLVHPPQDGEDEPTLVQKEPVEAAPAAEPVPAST
Assay: activating ClpP hydrolysis of FITC-casein (fluorescence kinetic detection)
Conditions: hClpP 1 μM, FITC-Casein 4 μM, 37° C.

For orientation, consider the following solved cases.
{"Mol": "O=c1c2c(n3ncnc3n1Cc1ccc(Cl)cc1)CCN(Cc1cccc(Cl)c1)C2", "EC50": "1000 to 10000 nM"}
{"Mol": "O=c1c2c(n3ccnc3n1Cc1ccccc1)CCN(Cc1cccc(Cl)c1)C2", "EC50": "< 1000 nM"}
{"Mol": "CCc1ccc(Cn2c(=O)c3c(c4cccnc42)CCN(Cc2cccc(C#N)c2)C3)cc1", "EC50": "< 1000 nM"}

What value of measured EC50 is listed for "O=c1c2c(n3nccc3n1Cc1ccccc1)CCN(Cc1cccc(Cl)c1)C2" ?
1000 to 10000 nM

What value of measured EC50 is listed for "CCc1ccc(Cn2c(=O)c3c(n4ccnc24)CCN(Cc2cccc(C)c2)C3)cc1" ?
< 1000 nM

What value of measured EC50 is listed for "O=c1c2c(c3cccnc3n1Cc1cccc(F)c1)CCN(Cc1ccccc1)C2" ?
< 1000 nM

What value of measured EC50 is listed for "CNc1ccc(Cn2c(=O)c3c(c4cccnc42)CCN(Cc2cccc(C#N)c2)C3)cc1" ?
1000 to 10000 nM

What value of measured EC50 is listed for "Cn1cncc1CN1CCc2c(c(=O)n(Cc3ccccc3)c3ncccc23)C1" ?
10000 to 100000 nM

The values you see were collected from patent US20240327408A1.
